assay.explanation: Plasma and brain concentrations in 4L;C* mice
Type: in vivo, mouse
protocol.conditions: both sexes, 4L;C* (C57BL/6 J/129SvEV), mouse, brain, ip, 90 mg kg^–1, 4L;C* mice, 90 mg kg^–1 i.p., 1 h after last dose (day 14); read-out: Cb, u (μM) brain unbounded concentration
reported.metric: concentration at 1 h (µM)
Response body: numeric value in µM, unit text excluded.

[Q] What value of measured concentration at 1 h is listed for CC(C)CNC(=O)n1c(=O)oc2cc(C3CCN(C)CC3)ccc21 [22m] ?
[A] 2.6

----------
assay.explanation: In vivo pharmacokinetic study in male CD1 mice
protocol.conditions: mouse, po, plasma, 10 mg kg^–1 p.o.
reported.metric: Tmax at 24 h (min)
Response body: numeric value in min, unit text excluded.

[Q] What value of measured Tmax at 24 h is listed for CC(C)CNC(=O)n1c(=O)oc2cc(C3CCN(C)CC3)ccc21 [22m] ?
[A] 30
